target: HLA-A*30:02; test: IEDB peptide-MHC binding, purified MHC/competitive/radioactivity; filed as Kd, often an IC50 or EC50 that approximates it; bounds were set here for any values at or beyond the usual limits of such assays; conditions: source organism: Dengue virus 3 Martinique/1243/1999
pKd: −log10 of the molar value.
Measured Metric: pKd

Quick one: pKd of "MVHQIFGSAY" ?
≤ 4.21

Look up pKd for this sequence: "QNYVCKHTY"
≤ 4.11

Could you tell me which pKd is on file for "IAIGIITLY" ?
5.57

Fill in: pKd of "RYMGEDGCWY" is ___
≤ 4.16

Values were extracted from the Immune Epitope Database (IEDB).
